# Tgt: Peroxisome proliferator-activated receptor gamma/Nuclear receptor coactivator 2 (Homo sapiens, UniProt P37231)
# Sequence (P37231 whole entry): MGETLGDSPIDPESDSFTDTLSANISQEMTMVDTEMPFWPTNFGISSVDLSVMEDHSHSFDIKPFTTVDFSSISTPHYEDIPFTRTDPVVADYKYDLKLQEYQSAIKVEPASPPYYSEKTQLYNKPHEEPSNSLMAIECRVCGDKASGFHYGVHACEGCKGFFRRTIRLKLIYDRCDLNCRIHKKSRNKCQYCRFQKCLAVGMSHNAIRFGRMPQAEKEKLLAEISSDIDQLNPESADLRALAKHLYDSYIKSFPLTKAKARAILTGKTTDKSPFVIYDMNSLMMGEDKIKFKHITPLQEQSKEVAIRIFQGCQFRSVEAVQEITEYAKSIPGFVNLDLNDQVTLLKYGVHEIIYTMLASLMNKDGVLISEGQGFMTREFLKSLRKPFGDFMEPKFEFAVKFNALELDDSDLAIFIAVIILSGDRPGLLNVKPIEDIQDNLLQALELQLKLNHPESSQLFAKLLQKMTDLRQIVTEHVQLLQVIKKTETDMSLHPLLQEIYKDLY
# Sequence (Q15596 whole entry, further chain): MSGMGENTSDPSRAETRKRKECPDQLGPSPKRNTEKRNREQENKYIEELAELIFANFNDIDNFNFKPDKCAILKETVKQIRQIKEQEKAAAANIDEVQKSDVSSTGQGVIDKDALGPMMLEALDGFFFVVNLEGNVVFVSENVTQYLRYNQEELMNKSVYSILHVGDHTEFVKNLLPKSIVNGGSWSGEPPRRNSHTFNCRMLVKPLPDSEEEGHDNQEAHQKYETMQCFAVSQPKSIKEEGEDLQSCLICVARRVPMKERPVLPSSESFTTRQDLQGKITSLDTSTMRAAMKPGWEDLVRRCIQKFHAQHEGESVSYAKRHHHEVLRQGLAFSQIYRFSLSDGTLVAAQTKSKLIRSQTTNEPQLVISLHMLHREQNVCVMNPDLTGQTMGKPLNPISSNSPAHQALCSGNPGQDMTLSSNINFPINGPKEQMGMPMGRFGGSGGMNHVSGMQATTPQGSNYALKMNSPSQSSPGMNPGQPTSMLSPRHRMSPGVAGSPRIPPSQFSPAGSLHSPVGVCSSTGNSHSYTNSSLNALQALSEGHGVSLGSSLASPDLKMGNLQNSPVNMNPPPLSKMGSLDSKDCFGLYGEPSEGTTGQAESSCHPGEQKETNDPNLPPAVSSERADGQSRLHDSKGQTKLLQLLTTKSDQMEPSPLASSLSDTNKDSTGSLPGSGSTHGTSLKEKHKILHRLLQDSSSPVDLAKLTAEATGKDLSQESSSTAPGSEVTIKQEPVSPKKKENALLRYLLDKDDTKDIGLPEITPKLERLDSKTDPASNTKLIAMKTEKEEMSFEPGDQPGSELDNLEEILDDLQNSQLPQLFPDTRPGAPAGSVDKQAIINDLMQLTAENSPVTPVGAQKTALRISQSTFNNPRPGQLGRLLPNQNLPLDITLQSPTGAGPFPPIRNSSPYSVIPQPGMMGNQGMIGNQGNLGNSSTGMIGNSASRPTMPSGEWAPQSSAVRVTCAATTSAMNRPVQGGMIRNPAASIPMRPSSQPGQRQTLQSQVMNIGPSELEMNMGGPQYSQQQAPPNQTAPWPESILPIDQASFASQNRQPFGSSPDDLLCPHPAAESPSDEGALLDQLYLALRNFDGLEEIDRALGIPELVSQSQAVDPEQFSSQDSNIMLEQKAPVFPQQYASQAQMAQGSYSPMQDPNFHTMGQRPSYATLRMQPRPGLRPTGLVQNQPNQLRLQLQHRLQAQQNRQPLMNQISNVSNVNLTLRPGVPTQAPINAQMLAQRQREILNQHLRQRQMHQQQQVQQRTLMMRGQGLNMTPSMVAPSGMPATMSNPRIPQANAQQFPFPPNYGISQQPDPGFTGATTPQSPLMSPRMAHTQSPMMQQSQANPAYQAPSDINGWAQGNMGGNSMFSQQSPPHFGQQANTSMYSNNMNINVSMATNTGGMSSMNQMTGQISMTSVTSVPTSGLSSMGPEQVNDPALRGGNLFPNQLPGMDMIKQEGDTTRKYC
# Procedure summary: TR-FRET dose response biochemical High Throughput Screening assay for agonists of the steroid receptor coactivator 2 (SRC-2) recruitment by the peroxisome proliferator-activated receptor gamma (PPAR gamma): non-selective agonists. [Related pubchem assays: 1297, 1032 ]
# Format: functional
The source made the active and inactive calls.
Measured attribute: EC50

Use the examples below as a reference point.
Smiles entry	EC50
Cc1cc(C(=O)OCC(=O)c2ccc(Br)s2)no1	3.89 µM (active)
Cc1ccc(Cl)cc1-c1ccc(/C=N/c2ccc(N3CCOCC3)cc2)o1	19.4 µM (not active)
CCOC(=O)c1sc(-c2ccc(OC)cc2)cc1NC(C)=O	22 µM (not active)
O=C(CSc1ncnc2c1oc1ccccc12)Nc1cccc(F)c1	15.6 µM (not active)
CCn1c(=O)cc(SCC(=O)N(C)Cc2ccccc2)c2ccccc21	> 79.4 µM (not active)

Turning now to a further molecule:
**Q:** # get_value(readout='EC50', item= CSc1nc(Sc2ccccc2Cl)c2ccccc2n1 )
**A:** > 79.4 µM (not active)

====

# Procedure summary: Luminescence Cell-Based Dose Response HTS to Identify Activators of Luciferase Translation or Activity in H4 […] Cells. [Related pubchem assays: 1829 (Project Summary), 1814 (Primary HTS)]
# Assay type: functional
Active and inactive are the calls of the source.
Measured attribute: EC50

Solved entries (count: 3):
Smiles entry	Result
O=C(Nc1ccc2c(c1)nc1n2CCN(Cc2ccccc2)C1)c1cccs1	13.6 µM (active)
Cc1ccc2[nH]c(SCC(=O)c3ccc(O)cc3O)nc2c1	16.5 µM (active)
Cn1c(NC(=O)CCc2ccccc2)cc(=O)n(C)c1=O	4.41 µM (inconclusive)

Now consider a different compound.
**Q:** Quick one: EC50 of Cc1ccc(-c2cc(NC(=O)c3ccccc3)on2)cc1 ?
**A:** 0.137 µM (active)

====

# Tgt: Trace amine-associated receptor 1 (Homo sapiens, UniProt Q96RJ0)
# Sequence (Q96RJ0 whole entry): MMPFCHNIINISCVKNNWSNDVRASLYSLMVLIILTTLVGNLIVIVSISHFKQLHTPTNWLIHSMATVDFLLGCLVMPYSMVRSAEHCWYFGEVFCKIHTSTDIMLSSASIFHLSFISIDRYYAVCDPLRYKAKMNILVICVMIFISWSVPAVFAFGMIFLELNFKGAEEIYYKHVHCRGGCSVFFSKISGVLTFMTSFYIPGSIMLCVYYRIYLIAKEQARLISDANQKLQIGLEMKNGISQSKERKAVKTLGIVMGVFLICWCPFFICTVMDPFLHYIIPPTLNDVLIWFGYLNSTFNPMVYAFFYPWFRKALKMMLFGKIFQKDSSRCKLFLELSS
# Procedure summary: Fluorescence-based cell-based high throughput dose response assay to identify agonists of the human trace amine associated receptor 1 (TAAR1).
# Type: functional
Counter-ions that a name gives are not always drawn. The source made the active and inactive calls.
Measured attribute: EC50

Molecule	EC50
Oc1ccc(C2CNCCc3c2cc(O)c(O)c3Cl)cc1 (stereo not given) [FENOLDOPAM MESYLATE]	2700 nM (active)
CC1CCCN(C(=S)SCC(=O)c2cc(Br)cc(Br)c2O)C1 (stereo not given)	732 nM (active)

**Q:** Could you tell me which EC50 is on file for CCOC(=O)[C@]12CCCC=C1N(CCC1=CCCCC1)C(=O)[C@H](CC(=O)NCCc1ccccc1OC)C2 ?
**A:** 3590 nM (active)

**Q:** Quick one: EC50 of O=C(NCCc1ccc(O)cc1)c1[nH]c(C(F)(F)F)nc1-c1ccccc1 ?
**A:** 485 nM (active)

**Q:** Need EC50, item O=C(O)C1C2C=CC(C2)C1C(=O)NCCC1=CCCCC1 (stereo not given)
**A:** 916 nM (active)

====

# Tgt: Glucose-6-phosphate 1-dehydrogenase (Homo sapiens, UniProt P11413)
# Sequence (P11413 whole entry): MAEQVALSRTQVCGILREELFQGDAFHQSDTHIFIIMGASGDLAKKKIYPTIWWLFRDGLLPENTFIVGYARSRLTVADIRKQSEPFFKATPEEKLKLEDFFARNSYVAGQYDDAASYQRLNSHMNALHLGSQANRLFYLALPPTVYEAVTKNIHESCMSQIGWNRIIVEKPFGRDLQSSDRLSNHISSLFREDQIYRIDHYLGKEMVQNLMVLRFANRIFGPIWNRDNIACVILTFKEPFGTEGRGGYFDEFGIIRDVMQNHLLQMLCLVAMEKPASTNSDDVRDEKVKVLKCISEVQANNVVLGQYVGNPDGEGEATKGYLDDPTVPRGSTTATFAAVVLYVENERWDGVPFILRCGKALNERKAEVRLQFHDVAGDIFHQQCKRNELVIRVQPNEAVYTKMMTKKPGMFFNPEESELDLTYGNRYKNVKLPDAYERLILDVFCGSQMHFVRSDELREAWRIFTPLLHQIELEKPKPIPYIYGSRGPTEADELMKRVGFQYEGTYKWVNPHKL
# Procedure summary: inhibition of Homo sapiens G6PD, dose series – biochemical, fluorescence, selectivity assay for P. falciparum G6PD inhibitor project, dose response (AID 504792)
# Type: functional
Activity calls are given as the source filed them.
Parameter: IC50. Scope: all listed entries.

**Q:** Lookup: IC50 / Glucose-6-phosphate 1-dehydrogenase (Homo sapiens, UniProt P11413) / CCCNC(=O)Cn1sc2nc(C)cc(C)c2c1=O
**A:** 45.5 µM (inactive)

**Q:** Request body: readout IC50, system Glucose-6-phosphate 1-dehydrogenase (Homo sapiens, UniProt P11413), query O=C(CCSCCC(=O)NN=Cc1ccccc1)NN=Cc1ccccc1 . Return the value.
**A:** 55.2 µM (inactive)
